Test: qHTS assay to identify small molecule agonists of the progesterone receptor (PR) signaling pathway - cell viability counter screen (AID 1346799); also: nearly all actives have a fitted effect of over 45% in size
Conditions: PR-UAS-bla HEK293T viability, CellTiter-Glo luminescence, 16 h; series mostly up to 92.4 µM
From the text: National Center for Advancing Translational Sciences [NCATS] NIH Chemical Genomics Center [NCGC] U.S. Environmental Protection Agency [EPA] National Institutes of Environmental Health Sciences [NIEHS] National Toxicology Program [NTP] U.S. Food and Drug Administration [FDA] Progesterone receptor (PR), a nuclear hormone receptor, plays an important role in development, metabolic homeostasis and reproduction. It is activated by the steroid hormone progesterone. […]
Inconclusive results are not listed. Activity calls are given as the source filed them. Calls follow the shape of the full dose curve.
READOUT LABEL: outcome

{"COMPOUND STRING": "Cc1ccc2ncccc2c1", "READOUT LABEL": "outcome", "READOUT VALUE": "inactive"}
{"COMPOUND STRING": "CCCCCC(=O)O", "READOUT LABEL": "outcome", "READOUT VALUE": "inactive"}
{"COMPOUND STRING": "CCOCCOCCOCCO", "READOUT LABEL": "outcome", "READOUT VALUE": "inactive"}
{"COMPOUND STRING": "CC(C)(Oc1ccc(CCNC(=O)c2ccc(Cl)cc2)cc1)C(=O)O", "READOUT LABEL": "outcome", "READOUT VALUE": "inactive"}
{"COMPOUND STRING": "Cc1ccc(S(=O)(=O)N=C=O)cc1", "READOUT LABEL": "outcome", "READOUT VALUE": "inactive"}
{"COMPOUND STRING": "O=C1CCCC1", "READOUT LABEL": "outcome", "READOUT VALUE": "inactive"}
{"COMPOUND STRING": "CC1(C)OC[C@@H]2O[C@@]3(C(=O)O)OC(C)(C)O[C@H]3[C@@H]2O1", "READOUT LABEL": "outcome", "READOUT VALUE": "inactive"}
{"COMPOUND STRING": "NCCCCCCN", "READOUT LABEL": "outcome", "READOUT VALUE": "inactive"}
{"COMPOUND STRING": "O=S(=O)(O)c1ccc(N=Nc2c(O)ccc3cc(S(=O)(=O)O)ccc23)cc1", "READOUT LABEL": "outcome", "READOUT VALUE": "inactive"}
{"COMPOUND STRING": "CCCOC(=O)c1ccccc1", "READOUT LABEL": "outcome", "READOUT VALUE": "inactive"}
{"COMPOUND STRING": "O=C(O)Cn1c(=O)n(Cc2ccc(Br)cc2F)c(=O)c2ccc(Cl)cc21", "READOUT LABEL": "outcome", "READOUT VALUE": "inactive"}
{"COMPOUND STRING": "CN(C)c1ccc(O)c2c1C[C@H]1C[C@H]3[C@H](N(C)C)C(=O)C(C(N)=O)=C(O)[C@@]3(O)C(=O)C1=C2O", "READOUT LABEL": "outcome", "READOUT VALUE": "inactive"}
{"COMPOUND STRING": "O=C(O)c1ccc(C(=O)O)c(C(=O)O)c1", "READOUT LABEL": "outcome", "READOUT VALUE": "inactive"}
{"COMPOUND STRING": "CCNC(=S)NCC", "READOUT LABEL": "outcome", "READOUT VALUE": "inactive"}
